Data credit: patent US5457124A

List of pKi values.
Biological target: LTB4 Receptor (Homo sapiens)
Construct: Isolated human neutrophils in Gey's salt solution; endogenous in cells
Sequence (Q15722 whole entry): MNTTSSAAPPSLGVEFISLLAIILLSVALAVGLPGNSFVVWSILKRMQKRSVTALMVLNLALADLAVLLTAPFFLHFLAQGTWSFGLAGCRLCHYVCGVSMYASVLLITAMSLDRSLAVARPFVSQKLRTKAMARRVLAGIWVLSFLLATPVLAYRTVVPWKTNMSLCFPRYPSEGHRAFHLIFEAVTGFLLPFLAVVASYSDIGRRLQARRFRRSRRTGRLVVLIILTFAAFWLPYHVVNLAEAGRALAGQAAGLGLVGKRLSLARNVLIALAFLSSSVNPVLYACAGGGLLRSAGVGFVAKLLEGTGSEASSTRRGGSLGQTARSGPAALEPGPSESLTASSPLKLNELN
Test: LTB4 Receptor Binding Assay (inhibition of 3H-LTB4 binding, isolated human neutrophils)
Settings: 0.5 nM 3H-LTB4, 45 minutes on ice, Cheng-Prusoff, read-out: Ki, human neutrophil cells (inhibition of 3H-LTB4 binding)
pKi: −log10 of the molar value.

| compound.string | pKi |
| --- | --- |
| O=C(O)CCCOc1cccc(CCCCCCOc2ccc3c(c2CCCc2ccccc2)CCCC3=O)c1CCC(=O)O | 8.70 |
| O=C(O)CCCOc1cccc(CCCCCCOc2ccc3c(c2CCCc2ccccc2)OCCC3=O)c1CCC(=O)O | 9.00 |
| O=C(O)CCCOc1cccc(CCCCCCOc2ccc3c(c2C/C=C/c2ccccc2)CCCC3=O)c1CCC(=O)O | 9.00 |
